target: human GLP-1 receptor (Homo sapiens); construct: expressed in transfected cells; assay: GLP-1R cAMP Assay; format: cell-based; details: cAMP accumulation in CHO cells stably overexpressing the human GLP-1 receptor; 30 min treatment; HitHunter cAMP kit; read-out: EC50
pEC50: −log10 of the molar value.
EXPERIMENTAL READOUT: pEC50

- Cc1ccc(N(C)c2cccc(C3(N4CCN(Cc5nc6ccc(C(=O)O)cc6n5C[C@@H]5CCO5)CC4)CC3)c2)c(Cl)c1: < 6.30
- CCn1cncc1Cn1c(CN2CCC(CF)(Cc3ccnc(COc4ccc(Cl)cc4Cl)c3)CC2)nc2ccc(C(=O)O)cc21: > 7.30
- N#Cc1cc(F)c(OCc2nccc(OC3CCN(Cc4nc5c(F)cc(C(=O)O)cc5n4C[C@@H]4CCO4)CC3)n2)cc1F: > 7.30
- Cc1ccc(N(C)c2ccc(F)c(C(=O)N3CCN(Cc4nc5ccc(C(=O)O)cc5n4C[C@@H]4CCO4)CC3)c2)c(Cl)c1: > 7.30
- Cc1cc(C(=O)O)cc2c1nc(CN1CCC(Oc3ccnc(COc4ccc(F)cc4C#N)n3)CC1)n2C[C@@H]1CCO1: > 7.30
- C[C@@H](Oc1ccc(Cl)cc1Cl)c1ccc(C(=O)N2CCN(Cc3nc4ccc(C(=O)O)cc4n3C[C@@H]3CCO3)CC2)o1 (relative stereo): < 6.30

* * *

Listed below: pEC50 values for each entry.
target: human GLP-1 receptor (Homo sapiens, UniProt P43220); construct: expressed in transfected cells; test: GLP-1R cAMP Assay; format: cell-based; settings: cAMP accumulation in CHO cells stably overexpressing the human GLP-1 receptor; 30 min treatment; HitHunter cAMP kit; read-out: EC50
Sequence (P43220 24-463): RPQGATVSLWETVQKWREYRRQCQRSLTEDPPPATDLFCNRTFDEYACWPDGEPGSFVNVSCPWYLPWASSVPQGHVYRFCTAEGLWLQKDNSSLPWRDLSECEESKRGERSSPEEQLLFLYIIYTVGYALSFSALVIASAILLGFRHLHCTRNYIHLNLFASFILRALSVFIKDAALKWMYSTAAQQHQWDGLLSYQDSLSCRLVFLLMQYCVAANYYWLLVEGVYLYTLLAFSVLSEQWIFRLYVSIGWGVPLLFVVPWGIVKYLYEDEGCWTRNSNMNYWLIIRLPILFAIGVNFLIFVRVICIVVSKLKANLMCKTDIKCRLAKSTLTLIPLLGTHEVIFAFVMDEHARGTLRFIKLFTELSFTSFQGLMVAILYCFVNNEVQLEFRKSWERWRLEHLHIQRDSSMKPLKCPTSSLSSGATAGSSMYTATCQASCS
pEC50: −log10 of the molar value.
EXPERIMENTAL READOUT: pEC50

• CCn1cncc1Cn1c(CN2CCN(C(=O)c3cccc(N(C)c4ccc(C)cc4Cl)c3)CC2)nc2ccc(C(=O)O)cc21 = 6.30 to 7.30
• O=C(O)c1ccc2nc(CN3CCC(Oc4ccnc(COc5ccc(Cl)cc5Cl)n4)CC3)n(C[C@@H]3CCO3)c2c1 = > 7.30
• O=C(O)c1ccc2nc(CN3CCC(Oc4cccc(COc5ccc(Cl)cc5F)n4)CC3)n(Cc3ncco3)c2c1 = > 7.30

* * *

biological target: human GLP-1 receptor (Homo sapiens); construct: expressed in transfected cells; assay: GLP-1R cAMP Assay; assay type: cell-based; conditions: cAMP accumulation in CHO cells stably overexpressing the human GLP-1 receptor; 30 min treatment; HitHunter cAMP kit; read-out: EC50
Listed below: EC50 values for each entry.
EXPERIMENTAL READOUT: EC50

- CCn1cncc1Cn1c(CN2CCC(Oc3ccnc(COc4ccc(Cl)cc4F)c3)CC2)nc2ccc(C(=O)O)cc21 [Example 230]: < 50 nM
- O=C(O)c1ccc2nc(CN3CCC(Cc4cccc(COc5ccc(Cl)cc5Cl)c4)CC3)n(C[C@H]3CCOC3)c2c1 [Compound 148]: < 50 nM
- O=C(O)c1ccc2nc(CN3CCC(Oc4cc(COc5ccc(Cl)cc5Cl)ccn4)CC3)n(C[C@@H]3CCO3)c2c1 [Example 178]: 50 to 500 nM
- Cc1ccc2oc3cc(C(=O)N4CCN(Cc5nc6ccc(C(=O)O)cc6n5C[C@@H]5CCO5)CC4)ccc3c(=O)c2c1 [Example 44]: 50 to 500 nM
- CCn1cncc1Cn1c(CN2CCC(C)(Cc3ccnc(COc4ccc(Cl)cc4Cl)c3)CC2)nc2ccc(C(=O)O)cc21 [Example 163]: < 50 nM
- CCn1cncc1Cn1c(CN2CCC(Cc3cc(COc4ccc(Cl)cc4Cl)ccc3F)CC2)nc2ccc(C(=O)O)cc21 [Compound 137]: < 50 nM
- CCn1cncc1Cn1c(CN2CCC([C@@H](F)c3cccc(COc4ccc(Cl)cc4Cl)c3)CC2)nc2ccc(C(=O)O)cc21 (single isomer, unassigned) [Compound 203]: < 50 nM
- CCn1cncc1Cn1c(CN2CC[C@H](Oc3ccnc(COc4ccc(Cl)cc4Cl)c3)C[C@@H]2C)nc2ccc(C(=O)O)cc21 [Example 274]: < 50 nM
- N#Cc1cc(Cl)ccc1OCc1cccc(OC2CCN(Cc3nc4ccc(C(=O)O)cc4n3C[C@@H]3CCO3)CC2)n1 [Compound 248]: 50 to 500 nM
- CCn1cncc1Cn1c(CN2CCN(C(=O)c3cccc(N(C)c4ccc(C)cc4)c3)CC2)nc2ccc(C(=O)O)cc21 [Example 46]: 50 to 500 nM
- N#Cc1cc(F)ccc1OCc1cccc(OC2CCN(Cc3nc4ccc(C(=O)O)cc4n3C[C@@H]3CCO3)CC2)c1 [Example 206]: < 50 nM
- O=C(O)c1ccc2nc(CN3CCC(Oc4ccnc(COc5ccc(C(F)F)cc5F)c4)CC3)n(C[C@@H]3CCO3)c2c1 [Example 297]: < 50 nM
- Cc1ccc(N(C)c2ccnc(C(=O)N3CCN(Cc4nc5ccc(C(=O)O)cc5n4C[C@@H]4CCO4)CC3)c2)c(Cl)c1 [Compound 88]: > 500 nM
- N#Cc1ccc(OCc2cc(OC3CCN(Cc4nc5ccc(C(=O)O)cc5n4C[C@@H]4CCO4)CC3)ccn2)c(F)c1 [Compound 277]: < 50 nM

FYI, the data here is from patent US20230089073A1.
